Reported sfGFP reporter fluorescence values for a set of variants
B1: library; numbered along this chain (parent)
chain: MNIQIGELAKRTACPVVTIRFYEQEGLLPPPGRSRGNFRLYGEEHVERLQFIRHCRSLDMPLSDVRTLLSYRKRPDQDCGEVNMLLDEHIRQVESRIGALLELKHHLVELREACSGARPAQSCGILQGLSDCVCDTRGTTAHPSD

# Variants of: B1
# ASSAY EXPLANATION: sfGFP reporter fluorescence (15 h) (µM FITC); higher = higher leak
# CONDITION LABEL: library round: Round 0; ligand: none

The following variants have reported results that may help.
| MUTANT NAME | RESULT |
| --- | --- |
| L58P | 0.0594 |
| E112H | 0.0588 |
| K104I | 0.0616 |
| L126Y | 0.0596 |
| I3T | 0.0597 |

input: Fill in sfGFP reporter fluorescence for record `F21E`
output: 0.0596

input: Identify measured sfGFP reporter fluorescence corresponding to `P61R`
output: 0.0715

input: Please list sfGFP reporter fluorescence recorded for the variant `P61Y`
output: 0.0638

input: Write down sfGFP reporter fluorescence measured for item `I3H`
output: 0.059

input: State, in one line, measured sfGFP reporter fluorescence of `M60W`
output: 0.135

input: Write down sfGFP reporter fluorescence measured for item `C79A`
output: 0.0583

input: Look up and report measured sfGFP reporter fluorescence for this entry: `E112S`
output: 0.0673

input: Given the variant `L85S` , write its reported sfGFP reporter fluorescence.
output: 0.059

input: Check the records and state sfGFP reporter fluorescence for `V46M`
output: 0.0563

input: # return recorded sfGFP reporter fluorescence for input `P61L`
output: 0.0638

input: Look up sfGFP reporter fluorescence of D64K K104V and report it.
output: 0.436

input: Please supply the value of reported sfGFP reporter fluorescence for the item `G36D`
output: 0.0616
